Catalogue of compounds with associated melting point
attributeMeasured: melting point

[[record]]
molecule = "CC(=O)Nc1cc(N)c(Cl)cc1NC(C)=O"
attributemeasured = "melting point"
result = "237 °C"

[[record]]
molecule = "O=C(c1ccc(O)cc1)c1ccc(OCCOCCO)cc1"
attributemeasured = "melting point"
result = "126 to 127 °C"

[[record]]
molecule = "CC(C)COC(=O)ON1C(=O)CCC1=O"
attributemeasured = "melting point"
result = "33 to 35 °C"


---

Reported melting point values are given for each entry in this list.
attributeMeasured: melting point

[[record]]
compound = "O=C(O)Cc1cccc(Sc2ccccc2Cl)c1O"
attributemeasured = "melting point"
result = "91 to 93 °C"

[[record]]
compound = "CSc1ccc(CSc2nnc(-c3ccc4ncsc4c3)o2)cc1C(F)(F)F"
attributemeasured = "melting point"
result = "122 to 123 °C"

[[record]]
compound = "c1ccc(-n2ncc3c2-c2ccccc2C3)cc1"
attributemeasured = "melting point"
result = "119 to 120 °C"

[[record]]
compound = "OCCC1CCc2cc(OCc3ccc4ccccc4c3)ccc2C1 (stereo unspecified)"
attributemeasured = "melting point"
result = "90 to 91 °C"

[[record]]
compound = "O=C(c1cn(C(=O)c2ccc(Cl)cc2)c2ccccc12)C1CSC(c2cccnc2)N1 (stereo unspecified)"
attributemeasured = "melting point"
result = "80 to 84 °C"

[[record]]
compound = "O=C1c2cccc(Br)c2C(=O)N1c1ccc(OC(F)(F)F)cc1"
attributemeasured = "melting point"
result = "117 to 118 °C"

[[record]]
compound = "CCn1c(=NC(C)=O)c(-c2c(Cl)cccc2Cl)cc2cnc(SC)nc21"
attributemeasured = "melting point"
result = "175 to 177 °C"

[[record]]
compound = "O=C(O)c1cccc(C(=O)c2ccc(Cl)cc2)c1"
attributemeasured = "melting point"
result = "228 °C"

[[record]]
compound = "C=C(C)n1c(=O)n(CC2CN(Cc3ccccc3)CCO2)c2ccccc21 (stereo unspecified)"
attributemeasured = "melting point"
result = "117 °C"

[[record]]
compound = "COc1cc(F)ccc1Nc1ccc2c(c1)OCc1cc(N)ccc1C2=O"
attributemeasured = "melting point"
result = "38.9 °C"

[[record]]
compound = "Cc1oc(-c2ccccc2)nc1COc1ccc(/C=C/C=C/C#N)cc1"
attributemeasured = "melting point"
result = "120 to 121 °C"


---

attributeMeasured: melting point

[[record]]
compound = "O=C(O)CCC(CC=Cc1ccccc1Cl)(C(=O)C=Cc1ccc(Cl)cc1)c1ccccc1 (stereo unspecified)"
attributemeasured = "melting point"
result = "90 to 125 °C"

[[record]]
compound = "CCOC(=O)CCCn1cc(C(=O)c2ccc(N)c(OCCCCl)c2)c2ccccc21"
attributemeasured = "melting point"
result = "93 to 95 °C"

[[record]]
compound = "O=C1CCC(N2Cc3c(OCC4Cc5ccccc5O4)cccc3C2=O)C(=O)N1 (stereo unspecified)"
attributemeasured = "melting point"
result = "258 to 260 °C"

[[record]]
compound = "CCOC(=O)c1cnc2ccn(-c3ccncc3)n2c1=O"
attributemeasured = "melting point"
result = "103 to 104 °C"

[[record]]
compound = "CN1C(C)(C)CC2(CC1(C)C)NC(=O)N(CC(O)CN1C(=O)NC3(CC(C)(C)N(C)C(C)(C)C3)C1=O)C2=O"
attributemeasured = "melting point"
result = "255 to 256 °C"

[[record]]
compound = "CC(C)CCOCc1cccc(N2N=C(C(N)=O)NC2c2ccccc2F)c1 (stereo unspecified)"
attributemeasured = "melting point"
result = "120 to 122 °C"

[[record]]
compound = "O=C1C(=O)c2ccccc2C2=C1SCC1(CCN(C(=O)c3cccnc3)CC1)O2"
attributemeasured = "melting point"
result = "218 to 220 °C"

[[record]]
compound = "O=C(c1[nH]c2ccc(F)cc2c1Sc1ccccc1)N1CCCC1"
attributemeasured = "melting point"
result = "184 to 186 °C"

[[record]]
compound = "CN1CCOc2cc(S(=O)(=O)n3c(COC(C)(C)C(=O)O)cc4nc(Cl)ccc43)ccc21"
attributemeasured = "melting point"
result = "229 °C"

[[record]]
compound = "CCCCC[C@H]1CC[C@H](c2ncc([C@H]3CC[C@H](CCC)CC3)cn2)CC1"
attributemeasured = "melting point"
result = "98 °C"

[[record]]
compound = "CCC(CO)Nc1ccc(-c2cccc(C(F)(F)F)c2)nn1 (stereo unspecified)"
attributemeasured = "melting point"
result = "84 to 87 °C"

[[record]]
compound = "CCCCCCC(C)(C)c1ccc(C2=CCCN(C)C2)c(O)c1"
attributemeasured = "melting point"
result = "126 to 127 °C"

[[record]]
compound = "O=C(Nc1ccccc1)OCC1(COC(=O)Nc2ccccc2)CSc2ccccc2C1=O"
attributemeasured = "melting point"
result = "67 to 69 °C"

[[record]]
compound = "CCc1nn(C2CCCC2)c2nc(COS(C)(=O)=O)nc(OS(C)(=O)=O)c12"
attributemeasured = "melting point"
result = "114 to 116 °C"

[[record]]
compound = "CCOC(=O)c1cc2c(nc1C(=O)OCC)CCSC2"
attributemeasured = "melting point"
result = "65 to 66 °C"

[[record]]
compound = "CCOC(=O)Cc1ccc(NC(=O)C(COc2ccccc2)NS(=O)(=O)c2ccc(F)cc2)cc1 (racemic)"
attributemeasured = "melting point"
result = "122 to 124 °C"

[[record]]
compound = "CN(C)S(=O)(=O)c1ccc2c(c1)CC(N1CCN(CCN3CCOC3=O)CC1)c1ccccc1S2 (stereo unspecified)"
attributemeasured = "melting point"
result = "164 to 165 °C"

[[record]]
compound = "N#CC(=C1CCCN1)c1ccc(Cl)cc1"
attributemeasured = "melting point"
result = "135 to 137 °C"

[[record]]
compound = "COC(=O)COc1c(C(=O)OC)n(-c2ccccc2)c2ccc(OC)cc12"
attributemeasured = "melting point"
result = "97 to 100 °C"

[[record]]
compound = "Cc1ccc(S(=O)(=O)OCC2Cc3cccc(-c4cccc(C)c4)c3O2)cc1 (stereo unspecified)"
attributemeasured = "melting point"
result = "81 to 82 °C"

[[record]]
compound = "Cc1ccc(NC(=O)c2cnn3c(C(F)(F)F)cc(-c4ccc(C(F)(F)F)cc4)nc23)cc1S(N)(=O)=O"
attributemeasured = "melting point"
result = "297 °C"


---

attributeMeasured: melting point

[[record]]
compound = "CC(=O)Nc1nn(C)c2c1sc1cc(C)ccc12"
attributemeasured = "melting point"
result = "253 to 255 °C"

[[record]]
compound = "O=C1CC(c2ccc(Cl)cc2Cl)Oc2ccccc21 (stereo not drawn)"
attributemeasured = "melting point"
result = "91 to 92 °C"

[[record]]
compound = "Cn1c2ccccc2c2c(=O)n([C@@H]3CN4CCC3CC4)ccc21"
attributemeasured = "melting point"
result = "251 to 252 °C"


---

Each entry below carries its reported melting point.
attributeMeasured: melting point

[[record]]
molecule = "COC(=O)CCn1c(C)c(Cn2ccnc2)c2cc(CCC(=O)O)ccc21"
result = "134 to 137 °C"

[[record]]
molecule = "Clc1ccc(-c2c(Cc3nnn[nH]3)cnn2-c2ccccc2)cc1"
result = "230 to 232 °C"

[[record]]
molecule = "O=C(NCCO)Nc1ccccc1"
result = "120 to 122 °C"


---

attributeMeasured: melting point

[[record]]
compound = "COCc1sc(C(C)(O)c2ccsc2)nc1C (stereo unspecified)"
attributemeasured = "melting point"
result = "71 to 73 °C"

[[record]]
compound = "O=c1cc(NCCN2CCN(c3cccc(Cl)c3)CC2)cn[nH]1"
attributemeasured = "melting point"
result = "187 to 189 °C"

[[record]]
compound = "Cc1cccc(-n2nc(C(N)=O)nc2-c2ccccc2)c1"
attributemeasured = "melting point"
result = "142 to 143 °C"

[[record]]
compound = "CCOC(=N)c1ccc(-c2cc3ncn([C@H](C)[C@](O)(Cn4cncn4)c4ccc(F)cc4F)c(=O)c3s2)cc1"
attributemeasured = "melting point"
result = "158 to 161 °C"

[[record]]
compound = "Cc1ccc(-c2ccc3c(c2)C=C(C(=O)O)CS3)cc1"
attributemeasured = "melting point"
result = "244 °C"

[[record]]
compound = "CN(C)C=Nc1ccc(-c2ccc(Cl)cc2)cn1"
attributemeasured = "melting point"
result = "125 °C"

[[record]]
compound = "Fc1ccc(CCCC(c2ccc(F)cc2)c2c[nH]cn2)cc1 (stereo unspecified)"
attributemeasured = "melting point"
result = "135 to 137 °C"

[[record]]
compound = "COc1cc(Nc2nc3c(ccc4c3ncn4CCN3CCOCC3)cc2C#N)c(C)cc1Cl"
attributemeasured = "melting point"
result = "246 to 248 °C"

[[record]]
compound = "CC(C)(C)C(O)(CCCOc1ccccc1)Cn1cncn1 (stereo unspecified)"
attributemeasured = "melting point"
result = "106 °C"

[[record]]
compound = "Cc1cc2ncn(C)c(=O)c2s1"
attributemeasured = "melting point"
result = "188 to 190 °C"

[[record]]
compound = "COc1ccc2cccc(/C(CNC(C)=O)=N/O)c2c1"
attributemeasured = "melting point"
result = "136 to 138 °C"

